Test name: yeast display, Sf9 membrane polyspecificity reagent, FACS + sequencing; frameworks hold sequencing errors

Sequence data	polyreactivity (PSR sort gate)
QVQLVESGGGLVQAGGSLRLSCAASGIIFPPYAMGWYRQAPGKEREFVAGITSSGGTYYADSVKGRFTISRDNAKNTVFLQMNSLKPDDTAVYYCAARQGNLRRGFRWFNYWGQGTQVTVSS	high polyreactivity
QVQLVESAAGLVQAGGSLRLSCAASGSTFYRYEMGWYRQAPGKERELVATNTSGGSSTYYADSVKGRFTISRDNAKNTVYLQMNSLKPEDTAVYYCAKVYTYSGVNLSSISTPYGYWGQGTQVTVSS	high polyreactivity
QVQLVESGGGLVQAGGSLRLSCAASGLTFQWYTMGWYRQAPGKERELVAAISSRGGSTYYADSVKGRFTISRDNAKNTVYLQMNSLKPEDTAVYYCAVRLRWYFFLMDYWGQGTQVTVSS	high polyreactivity
